Where do these numbers come from? They come from paper PMC10374108.

tested-on: IadJ (Variovorax paradoxus, UniProt A0A0H2M0A9)
Sequence (A0A0H2M0A9 entry or part of it): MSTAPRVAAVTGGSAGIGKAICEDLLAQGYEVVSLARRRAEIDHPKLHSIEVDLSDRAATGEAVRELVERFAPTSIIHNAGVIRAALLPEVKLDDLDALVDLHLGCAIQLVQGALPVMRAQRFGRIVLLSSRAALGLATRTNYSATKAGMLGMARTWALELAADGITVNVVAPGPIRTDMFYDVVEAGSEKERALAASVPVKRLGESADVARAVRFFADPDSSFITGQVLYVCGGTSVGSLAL
pKd: −log10 of the molar value.
property-name: pKd

O=C(O)Cc1c[nH]c2ccccc12 [IAA, indole-3-acetic acid]	< 4.00
